Origin of measurements: paper PMC2764547

Target: T1, H198P E. coli DegS (residues 27-355) (E. coli, UniProt P0AEE3 27-355, H198P)
T1 sequence (looked up): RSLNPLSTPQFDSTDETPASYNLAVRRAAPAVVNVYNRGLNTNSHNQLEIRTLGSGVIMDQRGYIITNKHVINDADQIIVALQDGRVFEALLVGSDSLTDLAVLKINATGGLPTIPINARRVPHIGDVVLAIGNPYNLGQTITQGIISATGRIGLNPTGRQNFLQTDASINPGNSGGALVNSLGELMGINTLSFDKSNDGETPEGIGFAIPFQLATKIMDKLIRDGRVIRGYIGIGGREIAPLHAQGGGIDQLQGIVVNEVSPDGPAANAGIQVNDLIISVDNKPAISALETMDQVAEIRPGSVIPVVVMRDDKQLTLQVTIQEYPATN
Assay: fluorescence polarisation
Where no end group is shown, it is not given here. fluorescein = fluorescein-β-alanine label at the N-terminus; βAla = NCCC(=O)O
MEASUREMENT NAME: Kd (nM)
Just the number please, in nM, no unit attached.

// field: Kd; key: {fluorescein-βAla}-KKDNRDGNYYF [fluorescein-β-alanine-KKDNRDGNYYF OMP peptide] ; value = 1900
